assay: Primary redox qHTS assay for identification of artifact compounds. (AID 1845223); details: Amplex Red/HRP redox cycling with DTT, fluorescence; series mostly up to 53.8 µM;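 note: 0% = DMSO and 100% = reference compound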
Results filed as inconclusive are left out. Active and inactive are the calls of the source. Calls come from the whole dose curve; as a rule, active = well fitted activation curve with a large enough effect; inconclusive = small, poorly fitted or top-dose-only effect; inactive = flat fitted curve, though single readings scatter.

Compound	redox activity (% of DA3003)
COc1cccc2cc3c(c(O[C@@H]4O[C@H](CO[C@@H]5O[C@H](CO)[C@@H](O)[C@H](O)[C@H]5O)[C@@H](O)[C@H](O)[C@H]4O)c12)C(C)OC3=O (some centres undefined)	inactive
C[C@@H]1O[C@@H](O[C@H]2[C@H](OC(=O)[C@]34CCC(C)(C)C[C@H]3C3=CCC5[C@@]6(C)CC[C@H](O[C@@H]7O[C@H](C(=O)O)[C@@H](O)[C@H](O)[C@H]7O[C@@H]7O[C@H](CO)[C@H](O)[C@H](O)[C@H]7O)[C@@](C)(C=O)C6CC[C@@]5(C)[C@]3(C)C[C@H]4O)O[C@H](C)[C@H](O[C@@H]3O[C@H](C)[C@H](O)[C@H](O)[C@H]3O)[C@@H]2O)[C@H](O)[C@H](O)[C@H]1O[C@@H]1OC[C@@H](O)[C@H](O[C@@H]2O[C@H](CO)[C@@H](O)[C@H](O)[C@H]2O)[C@H]1O (some centres undefined)	3.32% [at 6.41 µM] (inactive)
COC(C(=O)N1Cc2[nH]nc(NC(=O)c3ccc(N4CCN(C)CC4)cc3)c2C1)c1ccccc1 (centres undefined)	inactive
C=C(F)c1sc(CNCCCNc2cc(=O)c3ccccc3[nH]2)c(C)c1Br	inactive

The reported numbers originate from PubChem BioAssay (NCATS).
